Test system: Puccinia recondita f. sp. tritici
PROTOCOL: Test K: wheat leaf rust, preventive spray on wheat seedlings
REPORTED CONDITIONS: 40 ppm (marked *); 100 = 100% disease control, 0 = no control
Marks after values point to notes of the source that are not given here.
PARAMETER MEASURED: Test K disease control rating

input: For the record NC(=O)c1nc(Cl)c(-c2c(F)cc(F)cc2F)n(-c2ccccc2)c1=O , what value of Test K disease control rating is listed for Puccinia recondita f. sp. tritici?
output: 100* %

input: For the record CC(C)Cn1c(-c2c(F)cccc2F)c(Cl)nc(-c2cnccn2)c1=O.Cl , what value of Test K disease control rating is listed for Puccinia recondita f. sp. tritici?
output: 92* %

input: For the record CCC(C)Cn1c(-c2c(F)cccc2F)c(Cl)nc(C(=O)NCCO)c1=O (stereo not shown) , what value of Test K disease control rating is listed for Puccinia recondita f. sp. tritici?
output: 96* %

input: For the record Cc1ccn(-c2nc(Cl)c(-c3c(F)cccc3F)n(-c3ccccc3)c2=O)n1 , what value of Test K disease control rating is listed for Puccinia recondita f. sp. tritici?
output: 100* %

input: For the record O=c1c(-n2cccn2)nc(Cl)c(-c2c(F)cccc2F)n1C1CCC1 , what value of Test K disease control rating is listed for Puccinia recondita f. sp. tritici?
output: 100* %

input: For the record CC(C)Cn1c(-c2c(Cl)cc(C(F)(F)F)cc2Cl)c(Cl)nc(-n2cccn2)c1=O , what value of Test K disease control rating is listed for Puccinia recondita f. sp. tritici?
output: 88* %

input: For the record O=c1c(-n2cccn2)nc(Cl)c(-c2c(F)cccc2F)n1-c1ccc(F)cc1F , what value of Test K disease control rating is listed for Puccinia recondita f. sp. tritici?
output: 100* %

input: For the record CC[C@H](C)Cn1c(-c2ccc(F)cc2Cl)c(Cl)nc(-n2cccn2)c1=O , what value of Test K disease control rating is listed for Puccinia recondita f. sp. tritici?
output: 100* %

input: For the record O=c1c(-n2cccn2)nc(Cl)c(-c2c(F)cccc2F)n1Cc1ccc(F)cc1 , what value of Test K disease control rating is listed for Puccinia recondita f. sp. tritici?
output: 100* %

input: For the record O=c1c(-n2cccn2)nc(Cl)c(-c2c(F)cccc2F)n1-c1ccc(OC(F)(F)F)cc1 , what value of Test K disease control rating is listed for Puccinia recondita f. sp. tritici?
output: 97* %

input: For the record O=c1c(-n2cccn2)nc(Cl)c(-c2c(F)cccc2F)n1-c1ccccc1F , what value of Test K disease control rating is listed for Puccinia recondita f. sp. tritici?
output: 89* %

input: For the record Cc1ccn(-c2nc(Cl)c(-c3c(F)cccc3F)n(Cc3ccccc3F)c2=O)n1 , what value of Test K disease control rating is listed for Puccinia recondita f. sp. tritici?
output: 98* %

input: For the record Cc1ccn(-c2nc(Cl)c(-c3c(F)cccc3F)n(Cc3ccccc3)c2=O)n1 , what value of Test K disease control rating is listed for Puccinia recondita f. sp. tritici?
output: 100* %

input: For the record Cc1ccn(-c2nc(Cl)c(-c3c(F)cc(F)cc3F)n(-c3ccc(Cl)cc3)c2=O)n1 , what value of Test K disease control rating is listed for Puccinia recondita f. sp. tritici?
output: 100* %

input: For the record CCCCn1c(-c2ccc(F)cc2Cl)c(Br)nc(-n2ccc(C)n2)c1=O , what value of Test K disease control rating is listed for Puccinia recondita f. sp. tritici?
output: 89* %

input: For the record Cc1ccn(-c2nc(Cl)c(-c3c(F)cc(F)cc3F)n(-c3ccccc3Cl)c2=O)n1 , what value of Test K disease control rating is listed for Puccinia recondita f. sp. tritici?
output: 100* %

input: For the record Cc1ccc(-n2c(-c3c(F)cccc3F)c(Cl)nc(-n3cccn3)c2=O)cc1 , what value of Test K disease control rating is listed for Puccinia recondita f. sp. tritici?
output: 99* %

input: For the record N#Cc1nc(Cl)c(-c2c(F)cccc2F)n(Cc2ccc(F)cc2)c1=O , what value of Test K disease control rating is listed for Puccinia recondita f. sp. tritici?
output: 91* %

input: For the record COc1ccc(-n2c(-c3c(F)cccc3F)c(Cl)nc(-n3cccn3)c2=O)cc1 , what value of Test K disease control rating is listed for Puccinia recondita f. sp. tritici?
output: 99* %

input: For the record Cc1ccn(-c2nc(Cl)c(-c3c(F)cccc3F)n(Cc3ccc(F)cc3)c2=O)n1 [compound 331] , what value of Test K disease control rating is listed for Puccinia recondita f. sp. tritici?
output: 100* %

input: For the record O=c1c(-n2cncn2)nc(Cl)c(-c2c(F)cccc2F)n1Cc1ccc(F)cc1 , what value of Test K disease control rating is listed for Puccinia recondita f. sp. tritici?
output: 86* %

input: For the record COc1ccccc1-n1c(-c2c(F)cccc2F)c(Cl)nc(-n2cccn2)c1=O , what value of Test K disease control rating is listed for Puccinia recondita f. sp. tritici?
output: 89* %

input: For the record Cc1ccn(-c2nc(Cl)c(-c3c(F)cc(F)cc3F)n(-c3cccc(F)c3)c2=O)n1 , what value of Test K disease control rating is listed for Puccinia recondita f. sp. tritici?
output: 100* %

input: For the record O=c1c(-n2cccn2)nc(Cl)c(-c2c(F)cc(F)cc2F)n1-c1cccc(Br)c1 , what value of Test K disease control rating is listed for Puccinia recondita f. sp. tritici?
output: 100* %

input: For the record CC[C@H](C)Cn1c(-c2ccc(F)cc2Cl)c(Br)nc(-n2ccc(C)n2)c1=O , what value of Test K disease control rating is listed for Puccinia recondita f. sp. tritici?
output: 100* %

---

Can you tell me Test B disease control rating for the items I'm about to list?
Tested on: Colletotrichum orbiculare
PROTOCOL: Test B: cucumber Colletotrichum anthracnose, preventive spray on cucumber seedlings
REPORTED CONDITIONS: 40 ppm (marked *); 100 = 100% disease control, 0 = no control
Marks after values point to notes of the source that are not given here.

input: Param item = Cc1ccn(-c2nc(Cl)c(-c3c(F)cc(F)cc3F)n(-c3ccc(Cl)c(Cl)c3)c2=O)n1 ; retrieve measured Test B disease control rating.
output: 99* %

input: Param item = Cc1ccn(-c2nc(Cl)c(-c3c(F)cccc3F)n(-c3ccc(F)cc3)c2=O)n1 ; retrieve measured Test B disease control rating.
output: 63* %

input: Param item = CSCCn1c(-c2c(F)cccc2F)c(Cl)nc(-n2ccc(C)n2)c1=O ; retrieve measured Test B disease control rating.
output: 0* %

input: Param item = Cc1ccn(-c2nc(Cl)c(-c3c(F)cccc3F)n(-c3ccccc3C)c2=O)n1 ; retrieve measured Test B disease control rating.
output: 31* %

input: Param item = O=c1c(-n2cccn2)nc(Cl)c(-c2c(F)cccc2F)n1-c1ccc(F)cc1 ; retrieve measured Test B disease control rating.
output: 63* %

input: Param item = CCCCn1c(-c2ccc(F)cc2Cl)c(Cl)nc(-n2ccc(C)n2)c1=O ; retrieve measured Test B disease control rating.
output: 90* %

input: Param item = O=c1c(-n2cccn2)nc(Cl)c(-c2c(F)cc(F)cc2F)n1Cc1cccc(C(F)(F)F)c1 ; retrieve measured Test B disease control rating.
output: 0* %

input: Param item = COc1ccc(-n2c(-c3c(F)cccc3F)c(Cl)nc(-n3cccn3)c2=O)cc1 ; retrieve measured Test B disease control rating.
output: 57* %

input: Param item = Cc1ccn(-c2nc(Cl)c(-c3c(F)cc(F)cc3F)n(-c3cccc(F)c3F)c2=O)n1 ; retrieve measured Test B disease control rating.
output: 100* %

input: Param item = O=c1c(-n2cccn2)nc(Cl)c(-c2c(F)cccc2F)n1CCBr ; retrieve measured Test B disease control rating.
output: 0* %

input: Param item = O=c1c(-n2cccn2)nc(Cl)c(-c2c(F)cc(F)cc2F)n1-c1cccc(Cl)c1 ; retrieve measured Test B disease control rating.
output: 99* %

input: Param item = O=c1c(-n2cccn2)nc(Cl)c(-c2c(F)cccc2F)n1C1CC1 ; retrieve measured Test B disease control rating.
output: 0* %

input: Param item = Cc1ccn(-c2nc(Cl)c(-c3c(F)cccc3F)n(-c3cccc(C)c3C)c2=O)n1 ; retrieve measured Test B disease control rating.
output: 0* %

input: Param item = O=c1c(-n2cccn2)nc(Cl)c(-c2c(F)cc(F)cc2F)n1Cc1ccc(C(F)(F)F)cc1 ; retrieve measured Test B disease control rating.
output: 0* %

input: Param item = Cc1ccn(-c2nc(Cl)c(-c3c(F)cc(F)cc3F)n(-c3ccccc3)c2=O)n1 ; retrieve measured Test B disease control rating.
output: 94* %

input: Param item = Cc1ccn(-c2nc(Cl)c(-c3c(F)cc(F)cc3F)n(-c3cccc(F)c3)c2=O)n1 ; retrieve measured Test B disease control rating.
output: 99* %

input: Param item = O=c1c(-n2cccn2)nc(Cl)c(-c2c(F)cccc2F)n1Cc1ccc(F)cc1 ; retrieve measured Test B disease control rating.
output: 95* %

input: Param item = Cc1ccccc1-n1c(-c2c(F)cccc2F)c(Cl)nc(-n2cccn2)c1=O ; retrieve measured Test B disease control rating.
output: 0* %

input: Param item = CC[C@H](C)Cn1c(-c2ccc(F)cc2Cl)c(Cl)nc(-n2cccn2)c1=O ; retrieve measured Test B disease control rating.
output: 100* %

input: Param item = O=c1c(-n2cccn2)nc(Cl)c(-c2c(F)cc(F)cc2F)n1-c1cc(F)cc(F)c1 ; retrieve measured Test B disease control rating.
output: 100* %

input: Param item = O=c1c(-n2cccn2)nc(Cl)c(-c2c(F)cc(F)cc2F)n1-c1ccc(Cl)cc1 ; retrieve measured Test B disease control rating.
output: 99* %

input: Param item = Cc1ccn(-c2nc(Cl)c(-c3c(F)cccc3F)n(Cc3ccc(F)cc3)c2=O)n1 [compound 341] ; retrieve measured Test B disease control rating.
output: 52* %

input: Param item = Cc1cc(C)c(-c2c(Cl)nc(-n3ccc(C)n3)c(=O)n2CC(C)C)c(C)c1 ; retrieve measured Test B disease control rating.
output: 0* %

input: Param item = CC(C)Cn1c(-c2c(F)cccc2F)c(Cl)nc(-n2cccc2C#N)c1=O ; retrieve measured Test B disease control rating.
output: 0* %

input: Param item = Cc1ccc(-n2c(-c3c(F)cccc3F)c(Cl)nc(-n3ccc(C)n3)c2=O)c(C)c1 ; retrieve measured Test B disease control rating.
output: 0* %

input: Param item = O=c1c(-n2cccn2)nc(Cl)c(-c2c(F)cccc2F)n1-c1ccccc1C(F)(F)F ; retrieve measured Test B disease control rating.
output: 88* %

input: Param item = Cc1cccc(-n2c(-c3c(F)cccc3F)c(Cl)nc(-n3cccn3)c2=O)c1C ; retrieve measured Test B disease control rating.
output: 0* %

input: Param item = Cc1ccn(-c2nc(Cl)c(-c3c(F)ccc(F)c3F)n(-c3ccccc3)c2=O)n1 ; retrieve measured Test B disease control rating.
output: 0* %

input: Param item = Cc1ccn(-c2nc(Cl)c(-c3c(F)cccc3F)n(Cc3ccccc3)c2=O)n1 ; retrieve measured Test B disease control rating.
output: 78* %

input: Param item = Cc1ccn(-c2nc(Cl)c(-c3c(F)cc(F)cc3F)n(-c3cc(F)c(F)c(F)c3)c2=O)n1 ; retrieve measured Test B disease control rating.
output: 98* %

input: Param item = Cc1ccn(-c2nc(Cl)c(-c3c(F)cc(F)cc3F)n(-c3cc(Cl)cc(Cl)c3)c2=O)n1 ; retrieve measured Test B disease control rating.
output: 36* %

input: Param item = Cc1ccn(-c2nc(Cl)c(-c3c(F)cccc3F)n(-c3cccc(F)c3F)c2=O)n1 ; retrieve measured Test B disease control rating.
output: 78* %

input: Param item = O=c1c(-n2cccn2)nc(Cl)c(-c2ccc(F)cc2Cl)n1-c1ccccc1 ; retrieve measured Test B disease control rating.
output: 63* %
